study.target: T1, HLA-A*02:01 (peptide-receptive MHC class I molecule of the UV-ligand exchange assay) (human)
T1 construct: MHC monomer first loaded with a UV-sensitive peptide (not identified) that is cleaved by UV light and exchanged for the test peptide; captured on streptavidin plates
test.description: UV-ligand exchange, anti-b2m ELISA; peptide exchange yield grade (>=10% = +; >=20% = ++; >=50 = +++; >=75% = ++++)
quantity.measured: peptide exchange yield

Known peptide exchange yield results, listed for orientation:
binder="FVLDTSESV (synthetic peptide; source genes COL6A1, COL6A2) [FVLDTSESV (SEQ ID NO: 70)]" result="50 to 75%"
binder="ALWLPTDSATV (synthetic peptide; source gene LAMB3) [ALWLPTDSATV (SEQ ID NO: 11)]" result="50 to 75%"
binder="VLVPYEPPQV (synthetic peptide; source gene TP63) [VLVPYEPPQV (SEQ ID NO: 77)]" result="20 to 50%"

Task item: Tell me its peptide exchange yield given LLFAGTMTV (synthetic peptide; source gene CYP2S1) [LLFAGTMTV (SEQ ID NO: 24)] as the entry.
Reply: 20 to 50%

Task item: Fill in reported peptide exchange yield for this entry: KITEAIQYV (synthetic peptide; source gene RORA) [KITEAIQYV (SEQ ID NO: 73)]
Reply: 50 to 75%

Task item: Please look at this binder and report its peptide exchange yield: SIFEGLLSGV (synthetic peptide; source gene GJB5) [SIFEGLLSGV (SEQ ID NO: 7)]
Reply: 20 to 50%

Task item: Provide only the value of recorded peptide exchange yield for HLIAEIHTA (synthetic peptide; source gene PTHLH; also called PTHL-001) [HLIAEIHTA (SEQ ID NO: 9)]
Reply: 50 to 75%

Task item: // Input: SLVSEQLEPA (synthetic peptide; source gene PKP3) [SLVSEQLEPA (SEQ ID NO: 34)] . Output its peptide exchange yield only.
Reply: 50 to 75%

Sourced from patent US20260028387A1
